Test: inhibitors of the yeast RAM network, pilot screen, dse1pr::URA3 reporter, 5-FOA selection (AID 869);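 note: 0% = DMSO wells with no growth and 100% = 10 µM 1-NA-PP1 with full growth; RAM network block rescues cells from 5-FOA so hits raise OD615 growth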
Conditions: S. cerevisiae dse1pr::URA3 5-FOA growth, OD615, 2 d; at 10 µM; active compounds read high; strain carries analog-sensitive mutant Cbk1 kinase
Listing: inhibition of selected compounds
# output: bare number, implied unit %

The cases that follow already have their inhibition on record.
>>> experimental_value("NS(=O)(=O)c1ccc(CCNC(=O)NC2(C(F)(F)F)Oc3ccccc3O2)cc1")
0.12
>>> experimental_value("Fc1ccc(-c2nnc3ccc(N4CCc5ccccc5C4)nn23)cc1")
2.02
>>> experimental_value("CC(=O)N1CCc2cc(S(=O)(=O)Nc3ccccc3N3CCN(C)CC3)ccc21")
1.71
>>> experimental_value("COc1ccc(CCNS(=O)(=O)c2ccc3c(c2)OCCO3)cc1OC")
3.12
>>> experimental_value("CC1CC(C)CN(CCCNC(=O)Cn2ncc3c(=O)oc4ccccc4c32)C1 (configuration not stated)")
3.87

Query string: Given CN(C)c1ccc(NC(=S)c2ccccn2)cc1 , state its recorded inhibition.
Result string: 1.82

Query string: Query (compound): Brc1ccc(CSc2ncn[nH]2)cc1 ; field requested: inhibition
Result string: 0.94

Query string: For the compound CCOC(=O)c1ccc(NC(=O)CSc2nc3c(c(=O)n2-c2ccccc2OC)SCC3)cc1 , what inhibition is on record?
Result string: 1.34

###

Assay: growth inhibitors of H69AR lung tumor, primary screen, human, duplicate replicates (AID 580);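 note: 100% = mean luminescence of untreated wells and 0% = no signal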
Details: H69AR lung tumor cells viability, ATP luminescence, 72 h; at 10 µM; active compounds read low
Entries and their viability
Give a bare numeral; the unit % is implied.

Worked cases, answers included:
>>> experimental_value("CCOc1ccc2ccccc2c1/C=N/n1cncn1")
92.3
>>> experimental_value("CC1CCN(CC(O)COC2CCC(C(C)(C)C)CC2)CC1 (stereo unspecified)")
74.5
>>> experimental_value("O=C(CSc1nnc(CNC(=O)c2c(F)cccc2Cl)o1)c1ccccc1")
92.1
>>> experimental_value("O=C(NCc1nnc(SCC(=O)N2CCCCCC2)o1)c1ccco1")
111
>>> experimental_value("O=C(O)Cc1cc(I)c(Oc2ccc(O)c(I)c2)c(I)c1")
96.3

Pending compound:
Query string: Data request, read-out viability, for CC(C)(C)n1ncc2c(=O)n(CC(=O)NCc3ccco3)cnc21
Result string: 68.5

###

Assay: Restrictive medium S. cerevisiae growth inhibition, OD615, pilot screen of yeast lifespan reduction project, restrictive growth control (AID 706);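 note: modified DeaD lifespan yeast strain shifted to restrictive glucose medium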
Conditions: OD615, 48 h, at 10 µM, active compounds read high
Below, each entry is listed alongside its reported growth inhibition.
Provide the reading as a plain figure in %.

>>> experimental_value("CCOc1ccc(C2CC(c3cccc(Cl)c3)n3nc(N)nc3N2)cc1 (stereo not drawn)")
7.05
>>> experimental_value("CSC(=NCCCN1CCOCC1)NS(=O)(=O)c1cccs1")
-11.4

Query string: // growth inhibition lookup, key: Cc1ccccc1-n1nc2c(c1NC(=O)COc1ccc(Cl)cc1)CS(=O)C2 (stereo not drawn)
Result string: -3.5

Query string: State the recorded growth inhibition for this entry: O=C(NCc1ccco1)C1CCN(c2nnc(-n3cccc3)s2)CC1
Result string: -3.18

Query string: Quick one: growth inhibition for CC(C)C12CN3CC(C(C)C)(CN(C1)C31C(=O)Nc3ccccc31)C2=O (stereo not drawn) ?
Result string: -17.8

Query string: # query: growth inhibition of entry Cc1ccc2cc(CCNC(=O)C(C)(C)C)c(=O)[nH]c2c1
Result string: -13.2

Query string: Entry under review: O=C(C1CCN(S(=O)(=O)c2cccc3cccnc23)CC1)N1CCCC1 . Reported growth inhibition?
Result string: 7.97

Query string: Fill blank: measured growth inhibition of the molecule O=C(CCCOc1ccccc1)n1nnc2ccccc21 is ____.
Result string: -9.88
